Target Under Test: T1, rat α-CGRP (Rattus norvegicus, UniProt P01256)
T1 construct: rat α (1-37); purchased GenScript Corporation or Global Peptide Services
T1 sequence (P01256 83-119 limits assumed): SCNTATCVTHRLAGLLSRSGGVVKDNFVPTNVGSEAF
Experimental Details: Biacore SPR affinity of Fab fragments to N-biotinylated rat α-CGRP on SA chip
Format: binding
Assay Conditions: 37° C., screening mode except underlined values

{"columns": ["Molecule", "Unit Text", "α-rat koff"],
 "data": [
  ["M75: G1 variant; L1 R28N T30G; L2 L56S; H2 E54K A57V; HC-FW3 L99T A100V (antibody, V domains shown) VH: EVQLVESGGGLVQPGGSLRLSCAASGFTFSNYWISWVRQAPGKGLEWVAEIRSKSDVSATHYAEAVKGRFTISRDNAKNSLYLQMNSLRAEDTAVYYCTVYFDYGLAIQNYWGQGTLVTVSS VL: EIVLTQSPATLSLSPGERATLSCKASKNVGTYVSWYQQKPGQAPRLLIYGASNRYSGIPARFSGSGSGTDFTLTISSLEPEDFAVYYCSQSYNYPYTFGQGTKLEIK", "s⁻¹", 0.0187],
  ["M45: G1 variant; L1 R28N; L2 G50A L56T; H2 E54K A57N S58E E64D; HC-FW3 L99T A100V (antibody, V domains shown) VH: EVQLVESGGGLVQPGGSLRLSCAASGFTFSNYWISWVRQAPGKGLEWVAEIRSKSDNEATHYADAVKGRFTISRDNAKNSLYLQMNSLRAEDTAVYYCTVYFDYGLAIQNYWGQGTLVTVSS VL: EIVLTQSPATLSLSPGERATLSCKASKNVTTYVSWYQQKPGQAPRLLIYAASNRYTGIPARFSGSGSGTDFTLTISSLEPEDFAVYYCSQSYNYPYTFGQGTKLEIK", "s⁻¹", 0.00558]
]}
